Cited source for all entries: patent US3939143A

system: Staphylococcus aureus Smith; assay: Minimum inhibitory concentration, serial dilution on nutrient agar; assay type: cell-based; conditions: 37°C, 18 hours, read-out: Minimum Inhibitory Concentration
endpoint-name: MIC

What value of measured MIC is listed for NC[C@@H]1CC[C@@H](N)[C@@H](O[C@H]2[C@H](O)[C@@H](O[C@H]3O[C@H](CO)[C@@H](O)[C@H](N)[C@H]3O)[C@H](N)C[C@@H]2N)O1 [DKB, 3',4'-dideoxykanamycin B, reference compound] ?
< 0.2 µg/mL

What value of measured MIC is listed for NCC(O)C(=O)N[C@@H]1C[C@H](N)[C@@H](O[C@H]2O[C@H](CN)CC[C@H]2N)[C@H](O)[C@H]1O[C@H]1O[C@H](CO)[C@@H](O)[C@H](N)[C@H]1O (mixture of isomers) ?
< 0.2 µg/mL

What value of measured MIC is listed for NCC(O)C(=O)N[C@@H]1C[C@H](N)[C@@H](O[C@H]2O[C@H](CN)[C@@H](O)[C@H](O)[C@H]2O)[C@H](O)[C@H]1O[C@H]1O[C@H](CO)[C@@H](O)[C@H](N)[C@H]1O (mixture of isomers) ?
0.2 µg/mL

What value of measured MIC is listed for NCC(O)C(=O)N[C@@H]1C[C@H](N)[C@@H](O[C@H]2O[C@H](CN)[C@@H](O)[C@H](O)[C@H]2N)[C@H](O)[C@H]1O[C@H]1O[C@H](CO)[C@@H](O)[C@H](N)[C@H]1O (mixture of isomers) ?
< 0.2 µg/mL
